Exercise: state measured viscosity for each of the compounds provided.
- study conditions: 293.15 K; 101.33 kPa; Liquid
Response body: numeric value in mPa·s, unit text excluded.

Exercise: Returns the measured viscosity for the input compound. Input: CCOC(=O)OCC [diethyl carbonate]
Solution: 0.8

Exercise: Returns the measured viscosity for the input compound. Input: CCCCO [butan-1-ol]
Solution: 2.963

Exercise: Returns the measured viscosity for the input compound. Input: CCCO [propan-1-ol]
Solution: 2.238

Exercise: Returns the measured viscosity for the input compound. Input: CCCCCO [pentan-1-ol]
Solution: 4.117

---

- study conditions: 313.15 K; 101.33 kPa; Liquid
Exercise: state measured mass density for each of the compounds provided.
Response body: numeric value in kg/m3, unit text excluded.

Exercise: Returns the measured mass density for the input compound. Input: CCCO [propan-1-ol]
Solution: 786.62

Exercise: Returns the measured mass density for the input compound. Input: CCOC(=O)OCC [diethyl carbonate]
Solution: 952.32

Exercise: Returns the measured mass density for the input compound. Input: CCCCO [butan-1-ol]
Solution: 793.29

Exercise: Returns the measured mass density for the input compound. Input: CCCCCO [pentan-1-ol]
Solution: 799.05
